Data credit: PubChem BioAssay AID1159580

Assay: chemical genetic growth profiling, strain panel (AID 1159580);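 note: tested at 20 µM; growth read once vehicle control cultures reached saturation at 30 °C; lower values mean less growth of the strain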
Details: S. cerevisiae deletion strains, growth OD, locus YMR125W, strain sto1, stronger effect = lower value
The whole screen tested about 5,500 compounds, of which about 2,000 (36%) were called active. Roughly 18% stayed inconclusive and do not appear here. The list shows a part of the results.
Strictly below 1 in normalized growth: criterion met. Otherwise: criterion not met.

Ask: A record lists `C[N+](C)(C)CCOC(N)=O` . Is its normalized growth below 1?
Result: criterion not met

Ask: Just wondering, is normalized growth of `COc1cc2c(cc1OC)[C@@H]1C(=O)c3ccc(OC)c(CC=C(C)C)c3O[C@@H]1CO2` below 1?
Result: criterion not met
